System: Staphylococcus sp.
Experimental details: in vitro antibacterial evaluation, MIC by broth dilution
Format: cell-based
Settings: broth dilution, 18 hours at 35° C.; strain GC 1131
Numbered stars: 1 amine (or outer) side, 2 acyl side, 3 side chain; on linkers, the order of the positions; unused ones are H or OH. Square brackets hold non-standard residues; d marks the D form. Peptide text beside a SMILES is read from it. ξ: configuration not given here. X6 = N=C1NCC(CC(N[*:1])C(=O)[*:2])N1C1OC(CO)C(O)C(O)C1O; Tyr(3-NO2) = N[CH](Cc1ccc(O)c([N+](=O)[O-])c1)C(=O)O; X7 = N=C1NCC(CC(N[*:1])C(=O)[*:2])N1; ξPhe(βξ-Me) = CC(c1ccccc1)C(N)C(=O)O
Measured MIC Staphylococcus aureus (GC 1131) accompanies every entry in the list below.
Observation type: MIC Staphylococcus aureus (GC 1131) (µg/mL)

[[record]]
compound = "COc1ccc(COC2C(CO)OC(OC3C(CO)OC(Oc4ccc(CC5NC(=O)C(C(C)c6ccccc6)NC(=O)CNC(=O)C(CO)NC(=O)C(C(O)C6CNC(=N)N6C6OC(CO)C(O)C(O)C6O)NC(=O)C(C(O)C6CNC(=N)N6)NC5=O)cc4)C(O)C3O)C(O)C2O)cc1OCc1ccccc1 (stereo not shown) [Example 239a]"
observation_type = "MIC Staphylococcus aureus (GC 1131)"
value_operator = "="
assay_value = 4

[[record]]
compound = "CC(c1ccccc1)C1NC(=O)CNC(=O)C(CO)NC(=O)C(C(O)C2CNC(=N)N2C2OC(CO)C(O)C3OC(C)(C)OC32)NC(=O)C(C(O)C2CNC(=N)N2)NC(=O)C(Cc2ccc(OC3OC(CO)C(OC4OC5COC(C)(C)OC5C5OC(C)(C)OC45)C4OC(C)(C)OC34)cc2)NC1=O (stereo not shown) [Example 229b]"
observation_type = "MIC Staphylococcus aureus (GC 1131)"
value_operator = ">"
assay_value = 128

[[record]]
compound = "CC(c1ccccc1)C1NC(=O)CNC(=O)C(CO)NC(=O)C(CC2CNC(=N)N2C2OC(CO)C(O)C(O)C2O)NC(=O)C(CC2CNC(=N)N2)NC(=O)C(Cc2ccc(O)c([N+](=O)[O-])c2)NC1=O (stereo not drawn) [Example 10] (cyclo(G[ξPhe(βξ-Me)][Tyr(3-NO2)][X7][X6]S); configuration not given here)"
observation_type = "MIC Staphylococcus aureus (GC 1131)"
value_operator = ">"
assay_value = 64

[[record]]
compound = "CC=C(C)C(=O)OC1C(CO)OC(OC2C(CO)OC(Oc3ccc(CC4NC(=O)C(C(C)c5ccccc5)NC(=O)CNC(=O)C(CO)NC(=O)C(C(O)C5CNC(=N)N5C5OC(CO)C(O)C(O)C5O)NC(=O)C(C(O)C5CNC(=N)N5)NC4=O)cc3)C(O)C2O)C(O)C1O (stereo not shown) [Example 278b]"
observation_type = "MIC Staphylococcus aureus (GC 1131)"
value_operator = "="
assay_value = 8

[[record]]
compound = "CC(c1ccccc1)C1NC(=O)CNC(=O)C(CO)NC(=O)C(CC2CNC(=N)N2C2OC(CO)C(O)C(O)C2O)NC(=O)C(CC2CNC(=N)N2)NC(=O)C(Cc2ccc(OC3OC(CO)C(OC4OC(COCc5ccc(OCc6ccccc6)cc5)C(O)C(O)C4O)C(O)C3O)cc2)NC1=O (stereo not shown)"
observation_type = "MIC Staphylococcus aureus (GC 1131)"
value_operator = "="
assay_value = 8

[[record]]
compound = "CC(C)CC(=O)OC1C(OC2C(CO)OC(Oc3ccc(CC4NC(=O)C(C(C)c5ccccc5)NC(=O)CNC(=O)C(CO)NC(=O)C(CC5CNC(=N)N5C5OC(CO)C(O)C(O)C5O)NC(=O)C(CC5CNC(=N)N5)NC4=O)cc3)C(O)C2O)OC(CO)C(O)C1O (stereo not shown) [Example 277b]"
observation_type = "MIC Staphylococcus aureus (GC 1131)"
value_operator = ">"
assay_value = 64

[[record]]
compound = "CC(c1ccccc1)C1NC(=O)CNC(=O)C(CO)NC(=O)C(C(O)C2CNC(=N)N2C2OC(CO)C(O)C(O)C2O)NC(=O)C(C(O)C2CNC(=N)N2)NC(=O)C(Cc2ccc(OC3OC(CO)C(OC4OC5COC(c6ccc(C(=O)O)cc6)OC5C(O)C4O)C(O)C3O)cc2)NC1=O (stereo not shown)"
observation_type = "MIC Staphylococcus aureus (GC 1131)"
value_operator = ">"
assay_value = 64

